Tested on: SK-OV-3
Assay: In vitro cytotoxicity against SKOV-3 ovarian carcinoma cells
Assay type: functional, cell-based
Details: Homo sapiens
pIC50: −log10 of the molar value.
Known pIC50 of a selection of compounds
propertyName: pIC50

compound: CC1C[C@]2(C)C(NCCCO)=Nc3ccccc3[C@@H]2N(C)c2ccccc21 (stereo partly drawn)
valueMeasured: 4.49
--
compound: CNc1cccc2c1C(C)C[C@]1(C)C(NCCCN)=Nc3ccccc3[C@H]21 (stereo partly drawn)
valueMeasured: 5.51
--
compound: CC1C[C@]2(C)C(NCCCN)=Nc3ccccc3[C@@H]2N(C)c2ccccc21 (stereo partly drawn)
valueMeasured: 5.48
--
compound: CNc1cccc2c1C(C)C[C@]1(C)C(NCCCCN)=Nc3ccccc3[C@H]21 (stereo partly drawn)
valueMeasured: 5.65
--
compound: CCCNC1=Nc2ccccc2[C@@H]2c3cccc(NC)c3C(C)C[C@]12C (stereo partly drawn)
valueMeasured: 4.92
--
compound: CC1C[C@]2(C)C(NCCCCN)=Nc3ccccc3[C@@H]2N(C)c2ccccc21 (stereo partly drawn)
valueMeasured: 5.80
--
compound: CNc1cccc2c1C(C)C[C@]1(C)C(NCCCO)=Nc3ccccc3[C@H]21 (stereo partly drawn)
valueMeasured: 4.90
--
compound: CCCNC1=Nc2ccccc2[C@@H]2N(C)c3ccccc3C(C)C[C@]12C (stereo partly drawn)
valueMeasured: 5.85
